system: trypsin; assay: Trypsin proteolytic resistance assay; conditions: immobilized trypsin-agarose resin
Bridge positions count the residues as written; N and C are the ends. Square brackets hold non-standard residues; d marks the D form. Peptide text beside a SMILES is read from it. * marks the point of attachment. Myristoyl = CCCCCCCCCCCCCC(=O)*; R8 = C=CCCCCCC[C@@](C)(N)C(=O)O; S5 = C=CCCC[C@](C)(N)C(=O)O
Measured remaining at 8 h, 100 µM by item
Give a bare numeral; the unit % is implied.

| Compound | Readout | Unit Label | Measured |
| --- | --- | --- | --- |
| CCCCCCCCCCCCCC(=O)N[C@@H](CC(N)=O)C(=O)N[C@@H](CC(C)C)C(=O)N[C@]1(C)CCCCCCC=CCCC[C@@](C)(C(=O)N[C@@H](CCC(=O)O)C(=O)N[C@@H](CCC(=O)O)C(=O)N[C@@H](CC(N)=O)C(N)=O)NC(=O)[C@H](CC(C)C)NC(=O)[C@H](CC(C)C)NC(=O)[C@H](CCCNC(=N)N)NC(=O)[C@H](CC(=O)O)NC(=O)[C@H](CCC(=O)O)NC(=O)[C@H](CCC(=O)O)NC1=O [compound 2020] (Myristoyl-NL[R8]EEDRLL[S5]EEN-NH2; staple 3-10) | remaining at 8 h, 100 µM | % | 93 |

Attention now shifts to the item below.
// query For the compound CC(=O)N[C@@H](CC(N)=O)C(=O)N[C@@H](CC(C)C)C(=O)N[C@]1(C)CCCCCCC=CCCC[C@@](C)(C(=O)N[C@@H](CCC(=O)O)C(=O)N[C@@H](CC(C)C)C(=O)N[C@@H](CC(N)=O)C(N)=O)NC(=O)[C@H](CC(C)C)NC(=O)[C@H](CC(C)C)NC(=O)[C@H](CCCNC(=N)N)NC(=O)[C@H](CC(=O)O)NC(=O)[C@H](CC(C)C)NC(=O)[C@H](CCC(=O)O)NC1=O , report remaining at 8 h, 100 µM.
// result 56
